Attribution: patent US5407956A

# experimental_system: DA2 (Oryctolagus cuniculus, UniProt G1T1Q0)
# Construct: Transversal sections (2-3 mm) of rabbit ear artery were suspended in isolated organ baths; from tissue; host or cells: rabbit ear artery (transversal sections)
# Sequence (G1T1Q0 1-443): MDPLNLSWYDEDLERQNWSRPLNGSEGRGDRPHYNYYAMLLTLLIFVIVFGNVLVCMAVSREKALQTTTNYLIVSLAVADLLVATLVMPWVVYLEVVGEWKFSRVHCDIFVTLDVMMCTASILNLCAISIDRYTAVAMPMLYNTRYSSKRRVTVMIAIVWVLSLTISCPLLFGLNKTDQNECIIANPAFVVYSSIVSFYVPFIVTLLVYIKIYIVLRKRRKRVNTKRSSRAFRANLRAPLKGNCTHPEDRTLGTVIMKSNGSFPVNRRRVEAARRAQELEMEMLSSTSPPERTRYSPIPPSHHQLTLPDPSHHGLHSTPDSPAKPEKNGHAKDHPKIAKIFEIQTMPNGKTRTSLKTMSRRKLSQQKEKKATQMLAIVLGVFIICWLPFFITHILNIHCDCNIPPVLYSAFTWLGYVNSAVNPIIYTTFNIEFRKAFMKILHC
# experiment_description: DA2-agonist activity on electrically stimulated rabbit ear artery
# protocol_conditions: inhibition of contraction induced by electric stimulation; read-out: DA2 rabbit ear artery pD2 (-log EC50) (converted)
Structures can show the parent of a compound that is named as a salt.
Reported log10 of EC50 values for the following molecules.
metric_name: log10 of EC50 (log10 of the value in nM)

molecule	log10 of EC50
CCCCN(CCCNCCOc1ccc(C)cc1OC)[C@H]1CCc2c(ccc(O)c2O)C1 [Compound 9, dihydrochloride]	3.02
CCCN(CCCNCCOc1ccccc1Cl)[C@@H]1CCc2cc(O)c(O)cc2C1 [Compound 8, dihydrochloride]	1.65
CCCN(CCCNCCOc1ccccc1OC)[C@H]1CCc2c(ccc(O)c2O)C1 [Compound 7, dihydrochloride]	0.33
CCCCN(CCCCCCN(C)CCOc1ccccc1OC)[C@@H]1CCc2cc(O)c(O)cc2C1 [Compound 11, dihydrochloride]	3.13
CCCN(CCCCCCN(C)CCOc1ccccc1OC)[C@H]1CCc2c(ccc(O)c2O)C1	0.53
CCCN(CCCCCCN(C)CCOc1ccc(C)cc1Cl)[C@H]1CCc2c(ccc(O)c2O)C1 [Compound 12, dihydrochloride]	2.66
CCCCN(CCCCCCNCCOc1ccccc1OC)[C@H]1CCc2c(ccc(O)c2O)C1 [Compound 3, dihydrochloride]	1.47
CCCN(CCCCCCNCCOc1ccc(C)cc1Cl)[C@H]1CCc2c(ccc(O)c2O)C1 [Compound 5, dihydrochloride]	0.84
CCCCN(CCCN(C)CCOc1ccc(C)cc1Cl)[C@@H]1CCc2cc(O)c(O)cc2C1 [Compound 14, dihydrochloride]	3.78
CCCN(CCCN(C)CCOc1ccccc1OC)[C@H]1CCc2c(ccc(O)c2O)C1 [Compound 13, dihydrochloride]	0.61
CCCCN(CCCCCCNCCOc1ccccc1Cl)[C@H]1CCc2c(ccc(O)c2O)C1 [Compound 4, dihydrochloride]	2.71
CCCN(CCCCCCNCCOc1ccccc1OC)[C@@H]1CCc2cc(O)c(O)cc2C1 [Compound 2, dihydrochloride]	0.64
Oc1ccc(CCNCCCCCCNCCc2ccccc2)cc1O [Dopexamine, dopexamine, reference compound]	2.65
CCCN(CCCCCCNCCOc1ccccc1OC)[C@H]1CCc2c(ccc(O)c2O)C1	0.03

* * *

# experimental_system: D1 receptor (Rattus norvegicus, UniProt P18901)
# Sequence (P18901 whole entry): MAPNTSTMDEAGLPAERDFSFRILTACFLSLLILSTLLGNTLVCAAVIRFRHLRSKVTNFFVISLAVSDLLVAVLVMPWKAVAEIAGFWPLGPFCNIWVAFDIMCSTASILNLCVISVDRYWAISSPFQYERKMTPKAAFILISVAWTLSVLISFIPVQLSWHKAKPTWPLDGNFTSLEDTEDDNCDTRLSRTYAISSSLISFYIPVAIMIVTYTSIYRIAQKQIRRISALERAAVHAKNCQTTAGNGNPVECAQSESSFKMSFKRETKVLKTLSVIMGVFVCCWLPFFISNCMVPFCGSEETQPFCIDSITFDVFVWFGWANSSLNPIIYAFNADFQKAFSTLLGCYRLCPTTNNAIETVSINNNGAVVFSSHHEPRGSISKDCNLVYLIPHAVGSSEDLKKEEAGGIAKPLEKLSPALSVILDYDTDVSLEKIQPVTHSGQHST
# experiment_description: biochemical
# protocol_conditions: [3H]-SCH23390; rat striatal membranes; Table 2; read-out: Binding D1 rat striatum Ki
pKi: −log10 of the molar value. Structures can show the parent of a compound that is named as a salt.
Reported pKi values for the following molecules.

molecule	experimental_system	pKi
CCCN(CCCNCCOc1ccccc1OC)[C@H]1CCc2c(ccc(O)c2O)C1 [Compound 7, dihydrochloride]	D1 receptor (Rattus norvegicus, UniProt P18901)	5.96
CCCN(CCCCCCN(C)CCOc1ccccc1OC)[C@H]1CCc2c(ccc(O)c2O)C1 [Compound 10]	D1 receptor (Rattus norvegicus, UniProt P18901)	6.39
CCCN(CCCCCCN(C)CCOc1ccc(C)cc1Cl)[C@H]1CCc2c(ccc(O)c2O)C1 [Compound 12, dihydrochloride]	D1 receptor (Rattus norvegicus, UniProt P18901)	6.74
CCCCN(CCCCCCNCCOc1ccccc1OC)[C@H]1CCc2c(ccc(O)c2O)C1 [Compound 3, dihydrochloride]	D1 receptor (Rattus norvegicus, UniProt P18901)	6.25
CCCN(CCCCCCNCCOc1ccccc1OC)[C@H]1CCc2c(ccc(O)c2O)C1 [Compound 1]	D1 receptor (Rattus norvegicus, UniProt P18901)	7.05
CCCN(CCCCCCNCCOc1ccc(C)cc1Cl)[C@H]1CCc2c(ccc(O)c2O)C1 [Compound 5, dihydrochloride]	D1 receptor (Rattus norvegicus, UniProt P18901)	6.92
CCCCN(CCCCCCN(C)CCOc1ccccc1OC)[C@@H]1CCc2cc(O)c(O)cc2C1 [Compound 11, dihydrochloride]	D1 receptor (Rattus norvegicus, UniProt P18901)	4.93

* * *

# experimental_system: D1 receptor (Rattus norvegicus)
# experiment_description: biochemical
# protocol_conditions: [3H]-SCH23390; rat striatal membranes; Table 2; read-out: Binding D1 rat striatum Ki
pKi: −log10 of the molar value. Where a name gives a salt, the structure may show the parent alone.

compound	experimental_system	pKi
CCCCN(CCCNCCOc1ccc(C)cc1OC)[C@H]1CCc2c(ccc(O)c2O)C1 [Compound 9, dihydrochloride]	D1 receptor (Rattus norvegicus)	4.66
CCCCN(CCCN(C)CCOc1ccc(C)cc1Cl)[C@@H]1CCc2cc(O)c(O)cc2C1 [Compound 14, dihydrochloride]	D1 receptor (Rattus norvegicus)	5.55
Oc1ccc(CCNCCCCCCNCCc2ccccc2)cc1O [Dopexamine, dopexamine, reference compound]	D1 receptor (Rattus norvegicus)	5.49
CCCCN(CCCCCCNCCOc1ccccc1Cl)[C@H]1CCc2c(ccc(O)c2O)C1 [Compound 4, dihydrochloride]	D1 receptor (Rattus norvegicus)	6.15
CCCN(CCCN(C)CCOc1ccccc1OC)[C@H]1CCc2c(ccc(O)c2O)C1 [Compound 13, dihydrochloride]	D1 receptor (Rattus norvegicus)	5.44
CCCN(CCCCCCNCCOc1ccccc1OC)[C@@H]1CCc2cc(O)c(O)cc2C1 [Compound 2, dihydrochloride]	D1 receptor (Rattus norvegicus)	6.50
CCCN(CCCNCCOc1ccccc1Cl)[C@@H]1CCc2cc(O)c(O)cc2C1 [Compound 8, dihydrochloride]	D1 receptor (Rattus norvegicus)	5.58
